- TARGET_ENTITY: yeast expressing human caspase-1/ASC, counter-screen read-out
- METHOD_DESCRIPTION: CASP1-PYCARD signal inhibition in yeast, concentration-response, counterassay for NLRP3 inhibitor project (AID 488800); cut-off not given, nearly all actives have IC50 up to about 10 µM
Please state which outcome applies, choosing from 1 = active, -1 = inactive

Solved cases (2 shown):
{"columns": ["MOLECULE", "ASSIGNED_CLASS"],
 "data": [
  ["O=c1c2ccc(Cl)cc2nc(-c2cccc(C(F)(F)F)c2)n1O", 1],
  ["Brc1ccc(-n2cnc(-c3ccccc3)c2)cc1", 1]
]}

Continue with the next molecule.
Ask: Kindly provide the recorded test outcome for the following molecule: C[C@@H]1C[C@@H]2O[C@H]2/C=C\C=C\C(=O)Cc2c(Cl)c(O)cc(O)c2C(=O)O1
Reply: 1
